# Test system: NCI-H460 lung
# TEST_DESCRIPTION: NCI tumour cell line growth inhibition, 48 h
MEASUREMENT_KIND: TGI

Request body: readout TGI, system NCI-H460 lung, query CCCOC(=O)CCn1c(SC)nc2[nH]cc(-c3ccccc3)c2c1=O . Return the value.
> 100 µM

Please provide the recorded TGI for COC(=O)[C@@]12C(=O)C(C)C(=O)[C@]1(C)C(C)=C[C@H]1[C@]3(C=O)CC[C@H](OC(C)=O)C(C)(C)[C@H]3CC[C@@]12C (stereo not given in full) , tested on NCI-H460 lung.
> 100 µM

Report TGI for CC(C)(C)[Si](C)(C)OCCOCn1cc(F)c(=O)[nH]c1=O tested on NCI-H460 lung.
> 100 µM

// lookup TGI | system=NCI-H460 lung | key= CCOc1cc2c(cc1OC(C)=O)C(=O)CC[C@H]1C3CC[C@H](OC(C)=O)[C@@]3(C)CC[C@H]21 (stereo not given in full)
> 100 µM

Find TGI (NCI-H460 lung) for the entry Cc1ccc(S(=O)(=O)n2c3c(c4ccccc42)CCN2CCC(Br)C[C@@H]32)cc1 (stereo not given in full)
30.1 µM

The values you see were collected from PubChem BioAssay (NCI).
